target: human factor Xa (Homo sapiens, UniProt P00742)
Sequence (P00742 235-488 limits assumed): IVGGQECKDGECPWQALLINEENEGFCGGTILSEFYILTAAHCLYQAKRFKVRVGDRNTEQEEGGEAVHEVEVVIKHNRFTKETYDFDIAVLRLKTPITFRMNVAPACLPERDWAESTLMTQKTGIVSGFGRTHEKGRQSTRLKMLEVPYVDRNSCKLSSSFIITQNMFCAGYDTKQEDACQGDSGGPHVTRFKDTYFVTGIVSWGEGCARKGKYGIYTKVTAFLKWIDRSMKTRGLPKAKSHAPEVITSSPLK
Sequence (P00742 41-179 partner limits assumed): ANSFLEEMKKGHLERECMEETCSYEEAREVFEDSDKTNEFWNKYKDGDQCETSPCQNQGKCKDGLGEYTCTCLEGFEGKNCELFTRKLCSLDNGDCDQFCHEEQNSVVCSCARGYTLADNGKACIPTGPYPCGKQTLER
assay-readout: Ki (nM)
API: value field is a number in nM; no unit string.

Can you look up the measured Ki of CC(C)N1CCC(NC(=O)c2ccc(C(=O)O)n2Cc2cc(-c3ccc(Cl)s3)on2)CC1 for me?
294

Continue with COC(=O)c1cc(C(=O)NC2CCN(C(C)C)CC2)cn1CC(=O)Nc1ccc(Cl)cn1
41300

How about this compound: CC(C)N1CCC(NC(=O)c2cc(C(=O)N3CCCOCC3)cn2CC(=O)Nc2ccc(Cl)cn2)CC1
81

What about this compound? CC(C)N1CCC(NC(=O)c2cc([N+](=O)[O-])cn2Cc2cc(-c3ccc(Cl)s3)on2)CC1
43

Next: Cc1cc(C)n(Cc2cc(-c3ccc(Cl)s3)on2)c1C(=O)NC1CCN(C(C)C)CC1
11

What do you get for CC(C)N1CCC(NC(=O)c2cc([N+](=O)[O-])cn2CC(=O)Nc2ccc(Cl)cn2)CC1 ?
59

Next compound up: COCCN(C)C(=O)c1ccc(C(=O)NC2CCN(C(C)C)CC2)n1Cc1cc(-c2ccc(Cl)s2)on1
57

Likewise for Cc1c(S(=O)(=O)N2CCCOCC2)c(C)n(Cc2cc(-c3ccc(Cl)s3)on2)c1C(=O)NC1CCN(C(C)C)CC1 ?
112

Cc1c(Br)c(C)n(Cc2cc(-c3ccc(Cl)s3)on2)c1C(=O)NC1CCN(C(C)C)CC1 ?
5

Same read-out for COc1cccc(Cn2cccc2C(=O)NC2CCN(C(C)C)CC2)c1 ?
8060

For CC(C)N1CCC(NC(=O)c2cccn2Cc2cc(-c3ccc(Cl)s3)on2)CC1 then?
77

Can you check CC(C)N1CCC(NC(=O)c2cc(C(=O)OCc3ccccc3)n(CC(=O)Nc3ccc(Cl)cn3)c2)CC1 next?
34900
